system: MRC-5; test: Inhibition of cell proliferation (GI50) and cell death (LC50), CellTiter 96 (Example 91); type: cell-based, human; details: MRC-5 non-transformed fibroblasts; 48 h; dose for 50% cell death
Recorded endpoint: CC50 (nM)
Number only, in nM; omit the unit.

Given the compound COC(=O)/C(C)=C\CC12OC(C)(C)C3CC(C=C4C(=O)c5c(O)c6c(c(CC=C(C)C)c5OC431)OC(C)(CCC=C(C)C)C=C6)C2=O (stereo not shown) [Example 4, Methyl Gambogate] , what is its reported CC50?
500

* * *

tested on: PC-3; assay: Caspase cascade activation assay (Example 90); format: cell-based, human; details: PC-3; 24 h incubation, 0.16 to 10 µM final; net RFU ratio to control
# cutoff 3 applies to caspase activity (Ratio); >= gives 1.0, < gives 0.0

These solved cases illustrate the format of a correct answer.
INSERT INTO assay_data (compound, target, qualitative_label) VALUES
  ('COC(=O)/C(C)=C\CC12OC(C)(C)C3CC(C=C4C(=O)c5c(O)c6c(c(CC=C(C)C)c5OC431)OC(C)(CCC=C(C)C)C=C6)C2=O (stereo not drawn) [Example 4, Methyl Gambogate]', 'PC-3', 1.0),
  ('CC(C)=CCC/C(C)=C/Cc1c(O)c(CC=C(C)C)c2c(c1O)C(=O)C1=CC3CC4C(C)(C)OC(C/C=C(/C)C=O)(C3=O)C14O2 (stereo not drawn)', 'PC-3', 0.0),
  ('CC(C)=CCC[C@]1(C)C=Cc2c(O)c3c(c(CC=C(C)C)c2O1)O[C@]12C(=C[C@@H]4C[C@H]1C(C)(C)O[C@@]2(C/C=C(/C)C(=O)O)C4=O)C3=O', 'PC-3', 0.0),
  ('CC(C)=CCCC1(C)C=Cc2c(O)c3c(c(CC=C(C)C)c2O1)OC12C(=CC4CC1C(C)(C)OC2(C/C=C(/C)C(=O)N1CCCCC1)C4=O)C3=O (stereo not drawn)', 'PC-3', 0.0),
  ('CC(C)=CCC/C(C)=C/Cc1c(O)c(CC=C(C)C)c2c(c1O)C(=O)C1=CC3CC4C(C)(C)OC(C/C=C(/C)C(=O)O)(C3=O)C14O2 (stereo not drawn)', 'PC-3', 0.0);

Kindly consider the entry below.
Would you say COC(=O)/C(C)=C\CC12OC(C)(C)C3CC(C=C4C(=O)c5c(OC)c6c(c(CC=C(C)C)c5OC431)OC(C)(CCC=C(C)C)C=C6)C2=O (stereo not drawn) [Example 6, Methyl-6-methoxy-gambogate] shows caspase activity (Ratio) at minimum 3?
1.0

* * *

tested on: MRC-5; assay: Caspase cascade activation assay (Example 90); format: cell-based, human; settings: MRC-5 non-transformed fibroblasts; 24 h incubation, 0.16 to 10 µM final; net RFU ratio to control
Recorded endpoint: caspase activity (Ratio)
Just the number, please, no unit after it.

Some molecules with recorded caspase activity (Ratio):
INSERT INTO assay_data (molecule, recorded_endpoint, measured_result) VALUES
  ('CC(C)=CCCC1(C)C=Cc2c(O)c3c(c(CC=C(C)C)c2O1)OC12C(=CC4CC1C(C)(C)OC2(C/C=C(/C)C(=O)N1CCCCC1)C4=O)C3=O (stereo not shown)', 'caspase activity (Ratio)', 12.6),
  ('CC(C)=CCC[C@]1(C)C=Cc2c(O)c3c(c(CC=C(C)C)c2O1)O[C@]12C(=C[C@@H]4C[C@H]1C(C)(C)O[C@@]2(C/C=C(/C)C(=O)O)C4=O)C3=O', 'caspase activity (Ratio)', 17.8),
  ('CC(C)=CCC/C(C)=C/Cc1c(O)c(CC=C(C)C)c2c(c1O)C(=O)C1=CC3CC4C(C)(C)OC(C/C=C(/C)C(=O)O)(C3=O)C14O2 (stereo not shown)', 'caspase activity (Ratio)', 22.4);

// moving on: another record for caspase activity (Ratio)
Given the molecule COC(=O)/C(C)=C\CC12OC(C)(C)C3CC(C=C4C(=O)c5c(O)c6c(c(CC=C(C)C)c5OC431)OC(C)(CCC=C(C)C)C=C6)C2=O (stereo not shown) [Example 4, Methyl Gambogate] , what is its reported caspase activity (Ratio)?
27.8

# credit: patent EP1180991B1
